Measurement record for K-562 leukemia; quantity recorded: GI50.

Guide cases for GI50, answers given:
{"compound": "Cc1ccc(/C=C(\\C#N)n2nnc3cc(Cl)c(Cl)cc32)cc1", "GI50": "0.892 µM"}
{"compound": "O=S(=O)(NCCNc1nccc(-c2c(-c3cccc(O)c3)nc3sccn23)n1)c1ccc(F)cc1", "GI50": "3.88 µM"}
{"compound": "COc1ccc(Nc2c3ccccc3nc3c2c2ccccc2n3C)cc1", "GI50": "5.57 µM"}

Quick one: give me GI50 for each item below, same order please.
1. CSC1=Nc2c(c(C)c(-c3ccccc3)n2COC(CO)CO)C2=NC(=O)C(C)N12 (centres undefined)
2. Clc1ccc(-c2nc3c(-c4ccc(Cl)cc4)nc(-c4ccccc4)cn3c2-c2ccc(Cl)cc2)cc1
3. O=C(N[C@H](c1ccc(Cl)c(Cl)c1)C1CNC1)c1ccc2cnccc2c1
4. Fc1ccc(-c2nc(-c3nc4ccc(Cl)cc4[nH]3)cc3c2[nH]c2ccccc23)cc1

## Result
["> 100 µM", "> 50 µM", "3.37 µM", "3.32 µM"]

Quick one: give me GI50 for each item below, same order please.
1. Cc1ccc(-n2c3c(c4c(CN5CCCCC5)c(O)ccc42)CCc2ccccc2C3=O)cc1
2. COc1cc(CNC(=O)/C=C/C=C/c2ccc3c(c2)OCO3)ccc1OCc1cn(-c2ccc(Cl)c(Cl)c2)nn1

## Result
1: 32.2 µM; 2: 0.509 µM

* * *

Tested on: 786-0 renal
Your answer must be one of the following: active, inactive

{"compound": "CCCc1cc(=O)oc2c(C(=O)CC(C)C)c(O)c(CC=C(C)C)c(O)c12", "classification": "inactive"}

## Task I'd appreciate the recorded outcome for "O=C(Nc1cccc(Cl)c1)Nc1cccc(Cl)c1" from this test.
## Result inactive

## Task I'd appreciate the recorded outcome for "CC/C(=N\Nc1nc2ccccc2n1C)c1ccccn1" from this test.
## Result active

## Task I'd appreciate the recorded outcome for "N/C(=N\O)c1ncc(-c2ccc(C(F)(F)F)cc2)c(NC2CCCCCC2)n1" from this test.
## Result inactive

* * *

System: NCI-H522 lung
Assay: NCI tumour cell line growth inhibition, 48 h
Rule: TGI of 40 µM or more gives condition met; anything lower gives condition not met.

Sample answers from the record:
{"compound": "O=C(Nc1ccc(Cl)cc1)c1cc(S(=O)(=O)Nc2n[nH]c(=O)[nH]2)c(SSc2cc(Cl)c(C(=O)Nc3ccc(Cl)cc3)cc2S(=O)(=O)Nc2n[nH]c(=O)[nH]2)cc1Cl", "classification": "condition met"}
{"compound": "COc1ccc2nc(-c3ccc(OC(=O)N(C)C)cc3)cn2c1", "classification": "condition met"}
{"compound": "N#CS/C(C(Cl)=C(Cl)Cl)=C(/Cl)[N+](=O)[O-]", "classification": "condition not met"}
{"compound": "COc1ccc(Nc2c3ccccc3nc3c2c2ccccc2n3C)cc1", "classification": "condition met"}
{"compound": "CC(=O)NNc1nc(C)c(C(=O)NNC(=O)C(=O)Nc2ccc(C)c(C)c2)s1", "classification": "condition met"}

## Task Hello, I need to know if "ON=C1CCCCC(=NO)CCCC1" has measured TGI not below 40 µM. Thanks!
## Result condition met

## Task Hello, I need to know if COc1cc2c(cc1OCCCCNC(=O)c1cc3ccccc3[nH]1)N=CC1CCCN1C2=O (stereo not drawn) has measured TGI not below 40 µM. Thanks!
## Result condition met

## Task Hello, I need to know if "COc1ccc2c(c1)/C(=C(\C(Cl)=C(\Cl)N1CCCCC1)[N+](=O)[O-])N2" has measured TGI not below 40 µM. Thanks!
## Result condition met

## Task Hello, I need to know if "COCCO" has measured TGI not below 40 µM. Thanks!
## Result condition met

## Task Hello, I need to know if "Cc1c2c(c(C)c3c[n+](C)ccc13)Oc1ccccc1O2" has measured TGI not below 40 µM. Thanks!
## Result condition not met

## Task Hello, I need to know if "N/C(=N\O)c1ncc(-c2ccc(C(F)(F)F)cc2)c(NC2CCCCCC2)n1" has measured TGI not below 40 µM. Thanks!
## Result condition not met

## Task Hello, I need to know if COc1cc(/C=C2\C(=O)N(c3cccc(Cl)c3)C(c3ccccc3)S2(=O)=O)cc(OC)c1OC (stereo not drawn) has measured TGI not below 40 µM. Thanks!
## Result condition met

## Task Hello, I need to know if CCc1cccc(C(C)CC)c1N=C(NC(=O)c1ccccc1C(=O)NC(=Nc1c(CC)cccc1C(C)CC)SC)SC (stereo not drawn) has measured TGI not below 40 µM. Thanks!
## Result condition met

## Task Hello, I need to know if CSCCC(NC(=O)C(Cc1ccccc1)NC(=O)CNC(=O)CNC(=O)C(N)Cc1ccc(O)cc1)C(=O)O (stereo not drawn) has measured TGI not below 40 µM. Thanks!
## Result condition met

## Task Hello, I need to know if Cc1cccc2c1Oc1cc(Cl)ccc1C2NC(=O)CCN1CCCCC1 (stereo not drawn) has measured TGI not below 40 µM. Thanks!
## Result condition not met

## Task Hello, I need to know if CC(C)(O)[C@@H]1CCC(C)([C@H]2[C@@H](O)CC3(C)C4CC(OC5OC(CO)C(O)C(O)C5O)C5C(C)(C)[C@@H](OC6OCC(O)C(O)C6O)CC[C@@]56C[C@@]46CC[C@]23C)O1 (stereo partly drawn) has measured TGI not below 40 µM. Thanks!
## Result condition met

## Task Hello, I need to know if "COC(=O)[C@]12CC[C@@H](C)[C@H](C)[C@@H]1C1=CC[C@@H]3[C@@]4(C)C[C@@H](OC(=O)c5ccco5)[C@H](O)[C@@](C)(CO)[C@@H]4[C@H](O)C[C@@]3(C)[C@]1(C)CC2" has measured TGI not below 40 µM. Thanks!
## Result condition not met

## Task Hello, I need to know if "Nc1[nH]c(=O)nc2sc3c(c12)CCCC3" has measured TGI not below 40 µM. Thanks!
## Result condition met

## Task Hello, I need to know if "CC(/C=C/c1ncccc1OCCCCCC(=O)O)=N\NC1=NCCN1" has measured TGI not below 40 µM. Thanks!
## Result condition met

## Task Hello, I need to know if "CCOC(=O)/C(C(=S)NC)=C(/N)N1CCCC1" has measured TGI not below 40 µM. Thanks!
## Result condition met

## Task Hello, I need to know if COC1/C=C\C=C(/C)C(=O)NC2=CC(=O)C=C(C2=O)C(OC)C(C)CC(OC)C(OC)C(C)/C=C(/C)C1OC(N)=O (stereo not drawn) has measured TGI not below 40 µM. Thanks!
## Result condition not met
